test system: Vero E6 infected with SARS-CoV-2; test: inhibition of SARS-CoV-2 cytopathic effect; higher = more antiviral protection, active = above 15; settings: 1 nM; 48 h
readoutType: inhibition of SARS-CoV-2 cytopathic effect (%)
Answers are plain numbers, in %.

Please review the following examples before continuing.
{"compound": "O=C(O)[C@H]1O[C@@H](Oc2cc3oc(-c4ccccc4)cc(=O)c3c(O)c2O)[C@H](O)[C@@H](O)[C@@H]1O", "observed": 2.44}
{"compound": "c1ccc(OCc2ccc(CCCN3CCOCC3)cc2)cc1", "observed": 0.24}
{"compound": "COc1ccc(OC)c([C@@H](O)CNC(=O)CN)c1", "observed": 1.29}

The following compounds each have a reported value; give each one's inhibition of SARS-CoV-2 cytopathic effect.
1. COc1cccc(Nc2c(C(N)=O)cnc3c(C)cc(S(=O)(=O)c4cccc(C(=O)N(C)C)c4)cc23)c1
2. NCc1c[nH]c(=S)n1[C@H]1CCc2c(F)cc(F)cc2C1 [nepicastat]
3. CN1CCN(c2cccc(Nc3nc4c(-c5ccc(S(C)(=O)=O)cc5)cccn4n3)c2)CC1
4. Cc1cccc(C)c1NC(=O)c1ccccc1C(=O)O [ftaxilide]

[1.19, -0.64, -0.26, -0.49]

The following compounds each have a reported value; give each one's inhibition of SARS-CoV-2 cytopathic effect.
1. COc1ccc2[nH]c([S+]([O-])Cc3ncc(C)c(OC)c3C)nc2c1 (stereo not drawn) [omeprazole-magnesium]
2. COc1ccc(NC(=O)c2ccc(-c3ccc(-c4noc(C)n4)cc3C)cc2)cc1OCCN(C)C
3. O=C1[C@@H]2[C@H]3CC[C@H](C3)[C@@H]2C(=O)N1CCCCN1CCN(c2ncccn2)CC1
4. Nc1nc(-c2nn(Cc3ccccc3F)c3ncccc23)ncc1C1CC1
5. CCCN(CCC)C(=O)Cc1c(-c2ccc(Cl)cc2)nc2ccc(Cl)cn12
6. Clc1ccc(C(Cn2ccnc2)OCc2c(Cl)cccc2Cl)c(Cl)c1 (stereo not drawn)
7. Fc1ccccc1CNCc1ccc(-c2ccnc3[nH]ccc23)cc1

3.38
-0.44
2.41
1.54
-5.3
0.43
4.68

The following compounds each have a reported value; give each one's inhibition of SARS-CoV-2 cytopathic effect.
1. CC(C)(C)NCC(O)c1ccc(O)c(CO)c1 (stereo not drawn)
2. CCCC(=O)C1(c2ccccc2)CCN(C(=O)[C@@H](Cc2ccc(OC)cc2)NC(=O)[C@@H](N)Cc2cncn2C)CC1
3. CC(C)NCC(O)c1cc(O)cc(O)c1 (stereo not drawn)
4. C#C[C@]1(O)CC[C@H]2[C@@H]3CCC4=CC(=NO)CC[C@@H]4[C@H]3CC[C@@]21CC (mixture of isomers)

1: -4.08; 2: 0.65; 3: -0.95; 4: -0.39

----------
test system: Vero E6 infected with SARS-CoV-2; experiment: inhibition of SARS-CoV-2 cytopathic effect; higher = more antiviral protection, active = above 15; details: 833.33 nM; 48 h
readoutType: inhibition of SARS-CoV-2 cytopathic effect (%)
Give bare numbers, in %.

Please review the following examples before continuing.
{"compound": "COc1cccc(CCc2ccccc2OCC[C@@H]2C[C@@H](O)CN2C)c1", "systemName": "Vero E6 infected with SARS-CoV-2", "observed": -9.02}
{"compound": "c1ccc2c(c1)OC[C@H](CNCCCOc1ccc3c(c1)OCO3)O2 [osemozotan]", "systemName": "Vero E6 infected with SARS-CoV-2", "observed": 1.42}

// below: inhibition of SARS-CoV-2 cytopathic effect requested for another compound
Name the reported inhibition of SARS-CoV-2 cytopathic effect value associated with the compound Nc1nc(=O)n([C@@H]2CS[C@H](CO)O2)cc1F [emtricitabine]
-0.69

----------
tested on: Vero E6 infected with SARS-CoV-2; experiment: inhibition of SARS-CoV-2 cytopathic effect; higher = more antiviral protection, active = above 15; settings: 1 nM; 48 h
readoutType: inhibition of SARS-CoV-2 cytopathic effect (%)
Numbers only, in %.

{"compound": "O=C1Nc2cc(Cl)c(Cl)cc2N2CCNC[C@H]12", "systemName": "Vero E6 infected with SARS-CoV-2", "observed": -0.02}
{"compound": "CCCCOc1cc(CC2CNC(=O)N2)ccc1OC (configuration not stated)", "systemName": "Vero E6 infected with SARS-CoV-2", "observed": -0.73}
{"compound": "CC(C)N(CCCCOCC(=O)NS(C)(=O)=O)c1cnc(-c2ccccc2)c(-c2ccccc2)n1", "systemName": "Vero E6 infected with SARS-CoV-2", "observed": -0.52}
{"compound": "O=C(O)CNC(=O)c1c(O)c2ccccc2n(Cc2ccccc2)c1=O", "systemName": "Vero E6 infected with SARS-CoV-2", "observed": -0.58}
{"compound": "O=C(OOC(=O)c1ccccc1)c1ccccc1 [benzoyl-peroxide]", "systemName": "Vero E6 infected with SARS-CoV-2", "observed": 2.98}

The following compounds each have a reported value; give each one's inhibition of SARS-CoV-2 cytopathic effect.
1. C=CC(=O)Nc1cccc(C)c1Nc1ncc2cc(-c3c(Cl)c(OC)cc(OC)c3Cl)ccc2n1
2. COc1cc2c(CCNC(C)=O)c[nH]c2cc1Cl

[-1.66, 0.92]

----------
system: Vero E6 infected with SARS-CoV-2; experiment: inhibition of SARS-CoV-2 cytopathic effect; higher = more antiviral protection, active = above 15; details: 8.33 nM; 48 h
readoutType: inhibition of SARS-CoV-2 cytopathic effect (%)
Numbers only, in %.

Please review the following examples before continuing.
{"compound": "CO[C@H]1C[C@H](O[C@H]2CC[C@@]3(C)[C@H](CC[C@@H]4[C@@H]3CC[C@]3(C)[C@@H](C5=CC(=O)OC5)[C@@H](OC(C)=O)C[C@]43O)C2)O[C@@H](C)[C@@H]1O [oleandrin]", "observed": -5.79}
{"compound": "Cc1cc(Cl)ccc1OCCCC(=O)NO [droxinostat]", "observed": 1.04}
{"compound": "O=C1CN2Cc3c(ccc(Cl)c3Cl)N=C2N1 [anagrelide]", "observed": -0.94}
{"compound": "CC(C)(C)NCC(O)c1ccc(O)c(CO)c1 (stereo unspecified) [albuterol]", "observed": -2.63}
{"compound": "COc1cc([S+](C)[O-])ccc1-c1nc2cccnc2[nH]1 (stereo unspecified) [sulmazole]", "observed": 3.93}

The following compounds each have a reported value; give each one's inhibition of SARS-CoV-2 cytopathic effect.
1. N[C@@H]1CCN(c2cccnc2)C1
2. CON [methoxyamine]
3. O=C(Nc1ccc(-c2ccncc2)cc1)N[C@H](CO)c1ccccc1
4. CN(C)CCN(C)CCc1ccc(Cl)c(Cl)c1
5. CCC[C@H](N[C@H]1CCc2cc(F)cc(F)c2C1)C(=O)Nc1cn(C(C)(C)CNCC(C)(C)C)cn1
6. O=C(O[C@@H]1Cc2c(O)cc(O)cc2O[C@@H]1c1ccc(O)c(O)c1)c1cc(O)c(O)c(O)c1 [epicatechin-gallate-(-)]
7. COc1cc2nccc(Oc3ccc(NC(=O)C4(C(=O)Nc5ccc(F)cc5)CC4)cc3)c2cc1OC [cabozantinib]
8. CC(C)c1onc(-c2c(Cl)cccc2Cl)c1COc1ccc(/C=C/c2cccc(C(=O)O)c2)c(Cl)c1

1: 0.19; 2: -2.53; 3: 2.37; 4: -0.98; 5: -2.77; 6: 3.11; 7: 1.83; 8: 0.15

The following compounds each have a reported value; give each one's inhibition of SARS-CoV-2 cytopathic effect.
1. CN[C@@H](C)[C@H]1[C@H](O)C[C@@]2(C)[C@@H]3CC[C@H]4C(C)(C)[C@@H](NC)CC[C@@]45C[C@@]35CC[C@]12C [cyclovirobuxin-D]
2. CC1CC(OC(=O)C(O)c2ccccc2)CC(C)(C)N1C (stereo unspecified) [eucatropine]
3. [O-][S+](c1ccccc1)c1ccc2nnnn2n1 (stereo unspecified)
4. Clc1ccc(C2=CCC[C@H]3CC[C@@H]2N3)cn1
5. c1cc(-c2cnn3cc(-c4ccc(N5CCNCC5)cc4)cnc23)c2cccnc2c1
6. C#C[C@]1(O)CC[C@H]2[C@@H]3CCC4=CC(=O)CC[C@@H]4[C@H]3C(=C)C[C@@]21CC [etonogestrel]
7. COc1ccccc1NC(=O)OCC1CCN(C(=O)OC(C)(C)C)CC1
8. CCN(CC)CCCC(C)Nc1ccnc2cc(Cl)ccc12 (stereo unspecified) [chloroquine]

2.73
3.45
2.68
2.33
-1.57
-1.3
-0.78
-2.02

----------
system: Vero E6 infected with SARS-CoV-2; experiment: morphology score (similarity to uninfected cells); higher = more like uninfected cells; conditions: 24 h
readoutType: morphology score

The following compounds each have a reported value; give each one's morphology score.
1. Cc1csc2c(N[C@@H](C)CN3CCN(S(=O)(=O)c4ccc(Cl)c(Cl)c4)CC3)ncnc12 [LPA2-antagonist-1] (10 µM)
2. COC(=O)c1ccc2c(c1)NC(=O)/C2=C(\Nc1ccc(N(C)C(=O)CN2CCN(C)CC2)cc1)c1ccccc1 [nintedanib] (10 µM)
3. CCN(CC)C(=O)N[C@H]1C[C@@H]2c3cccc4[nH]cc(c34)C[C@H]2N(C)C1 [terguride] (10 µM)
4. C[Se]C[C@H](N)C(=O)O [Se-methylselenocysteine] (10 µM)
5. CC(C)c1nc(CN(C)C(=O)N[C@H](C(=O)N[C@@H](Cc2ccccc2)C[C@H](O)[C@H](Cc2ccccc2)NC(=O)OCc2cncs2)C(C)C)cs1 [Ritonavir] (10 µM)
6. COc1ccc(C(=O)C2CCN(CC(=O)N(Cc3nc4c(c(=O)[nH]3)COCC4)CC3CC3)CC2)cc1 (10 µM)
7. C=C[C@@](C)(/C=C/c1ccc(O)cc1)CCC=C(C)C [bakuchiol] (10 µM)
8. CNC(=O)c1c(I)c(NC(C)=O)c(I)c(C(=O)O)c1I [iothalamic-acid-d3] (10 µM)

1. 0.142
2. -0.0524
3. -0.00522
4. 0.107
5. 0.0318
6. 0.165
7. -0.328
8. 0.143

The following compounds each have a reported value; give each one's morphology score.
1. CC(=O)O[C@H]1C[C@@H]2CC[C@@H]3[C@H](CC[C@@]4(C)[C@H]3C[C@H](N3CC[N+](C)(C)CC3)[C@@H]4OC(C)=O)[C@@]2(C)C[C@@H]1N1CC[N+](C)(C)CC1 [pipecuronium] (10 µM)
2. Clc1ccccc1C(c1ccccc1)(c1ccccc1)n1cccn1 (10 µM)
3. COC(=O)[C@H](NC(=O)c1cc(-c2ccccc2)nc2ccccc12)c1ccccc1 (10 µM)
4. O/N=C/c1cc[n+](COC[n+]2ccc(/C=N/O)cc2)cc1 [obidoxime] (10 µM)
5. COc1ccccc1OC(=O)c1ccccc1OC(C)=O [guacetisal] (10 µM)
6. COc1ccc2cc3[n+](cc2c1OC)CCc1cc2c(cc1-3)OCO2 [berberine] (10 µM)
7. COc1ccc(S(=O)(=O)N2CCCN(S(=O)(=O)c3ccc(OC)c(OC)c3)CC2)cc1OC (10 µM)
8. O=C(O)CCCCC(CCSCc1ccccc1)SCc1ccccc1 (configuration not stated) (10 µM)

0.0487
0.0967
0.0787
-0.0437
0.0562
0.0605
0.209
0.195

The following compounds each have a reported value; give each one's morphology score.
1. CCN(CC)Cc1nccn1-c1ccc([N+](=O)[O-])cc1C(=O)c1ccccc1Cl [nizofenone] (10 µM)
2. c1nc2c(NC3CCCCC3)nc(Nc3ccc(N4CCOCC4)cc3)nc2[nH]1 [reversine] (10 µM)
3. Cc1cc2c(C(C)C)c(O)c(O)c(C=O)c2c(O)c1-c1c(C)cc2c(C(C)C)c(O)c(O)c(C=O)c2c1O [gossypol] (0.833333 µM)

1: 0.148; 2: -0.11; 3: -0.0839
